B1: RSPH3 (parent)
chain: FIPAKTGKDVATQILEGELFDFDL

Variants of: B1
Test: protein stability index of a GFP-peptide fusion (GPS, HEK-293T) (PSI 1-6); higher = more stable;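 note: lentivirally expressed fusions sorted by FACS into six bins by GFP to DsRed ratio, PSI derived from sequencing read proportions per bin multiplied by bin number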
Conditions: c terminus: a fixed tail appended
variants and their reported protein stability index

Some variants with known protein stability index results, for comparison:
D21V = 1.66
L24R = 2.31
L15R = 2.75
D9I = 1.42
L24G = 2.75

Look at this variant and give its reported protein stability index. F20A
2.47

Look at this variant and give its reported protein stability index. I2H
2.02

Look at this variant and give its reported protein stability index. Q13I
2.43

Look at this variant and give its reported protein stability index. Q13D
2.08

Look at this variant and give its reported protein stability index. K5D
2.66
